test system: Cabbage Looper (Trichoplusia ni, TRIPNI); test: Bioassay on Cabbage Looper (CL), 128-well diet tray assay; type: in vivo; settings: 168 h, second instar CL larvae, 50 μg/cm^2 on artificial diet, 25° C., five to seven days, average of eight wells, read-out: CL % Control (or Mortality) rating
Task for the reader: assign each of the following compounds its reported mortality at 50 µg/cm2.

Please state mortality at 50 µg/cm2 for every compound in the list that follows.
1. CCCc1ccc(C)cc1N1C(=O)CS/C1=N\C(=O)Nc1ccc(COc2ncn(-c3ccc(OC(F)(F)F)cc3)n2)cn1 [F13]
2. Cc1ccc(C(C)C)c(N2C(=O)CS/C2=N\C(=O)Nc2ccc(OCc3ncn(-c4ccc(OC(F)(F)F)cc4)n3)c(Cl)c2)c1 [F38]
3. Cc1ccc(C(C)C)c(N2C(=O)CS/C2=N\C(=O)Nc2ccc(OCc3ncn(-c4ccc(OC(F)(F)F)cc4)n3)nc2)c1 [F44]

Response line:
1: 50 to 100%; 2: 50 to 100%; 3: 50 to 100%

###

Kindly supply the reported melting point values for the records listed here.

Check out these entries, answers already filled in.
# compound, reading
data = [
    ("COCc1ccc(C)cc1N1C(=O)CS/C1=N\\C(=O)Nc1ccc(OCc2ncn(-c3ccc(OC(F)(F)F)cc3)n2)cc1", "165 to 167 °C"),
    ("COC(C)c1ccc(C)cc1N1C(=O)CS/C1=N\\C(=O)Nc1c(F)cc(OCc2ncn(-c3ccc(OC(F)(F)F)cc3)n2)cc1F (centres unmarked)", "147 to 152 °C"),
    ("COCc1ccc(C)cc1N1C(=O)CS/C1=N\\C(=O)Nc1ccc(OCc2ncn(-c3ccc(OC(F)(F)F)cc3)n2)cc1F", "132 to 134 °C"),
    ("CCCc1ccc(C)cc1N1C(=O)CS/C1=N\\C(=O)Nc1c(F)cc(OCc2ncn(-c3ccc(OC(F)(F)F)cc3)n2)cc1F", "169 to 172 °C"),
]

Now consider the entry below.
Prompt line: Recorded melting point of "COCc1ccc(C)cc1N1C(=O)CS/C1=N\C(=O)Nc1ccc(OCc2ncn(-c3ccc(OC(F)(F)F)cc3)n2)cc1Cl" , please.
Response line: 148 to 150 °C
